The values you see were collected from patent US8765819B2.

Tested on: Candida strains (clinical isolates from patients suffering from Candidal vaginitis)
Assay: Inhibition of Candida growth in broth pH 4.5 (turbidity after 72 hours); also: key: '+': Candidal organism grew; '−' no Candidal organism grew
Format: cell-based
Details: Strain 1, 37.5° C.
Reported Property: Candida growth, Strain 1

Illustrative cases are given below, each with its answer.
• CC(=O)c1c([O-])cc(C)oc1=O.[Na+] [0.01% sodium dehydroacetate, sodium dehydroacetate] = +
• CCC(=O)[O-].[Na+] [0.0625% sodium propionate, sodium propionate] = +
• C/C=C/C=C/C(=O)[O-].[K+] [0.025% potassium sorbate, potassium sorbate] = +
• CCC(=O)[O-].[Na+] [0.25% sodium propionate, sodium propionate] = −
• CC(=O)c1c([O-])cc(C)oc1=O.[Na+] [0.005% sodium dehydroacetate, sodium dehydroacetate] = +
• CC(=O)c1c([O-])cc(C)oc1=O.[Na+] [0.0025% sodium dehydroacetate, sodium dehydroacetate] = +
• C/C=C/C=C/C(=O)[O-].[K+] [0.0125% potassium sorbate, potassium sorbate] = +

Now turn to the next molecule.
Summary: CCC(=O)[O-].[Na+] [0.125% sodium propionate, sodium propionate] , Candida strains (clinical isolates from patients suffering from Candidal vaginitis), Candida growth, Strain 1 = +

---

Tested on: Candida strains (clinical isolates from patients suffering from Candidal vaginitis)
Assay: Inhibition of Candida growth in broth pH 4.5 (turbidity after 72 hours); also: key: '+': Candidal organism grew; '−' no Candidal organism grew
Format: cell-based
Conditions: Strain 1, 37.5° C.
Reported Property: Candida growth, Strain 1

Illustrative cases are given below, each with its answer.
- O=C([O-])c1ccccc1.[Na+] [0.025% sodium benzoate, sodium benzoate]: +
- CCOC(=O)c1ccc(O)cc1 [0.05% Ethylparaben, Ethylparaben]: −
- CCOC(=O)c1ccc(O)cc1 [0.025% Ethylparaben, Ethylparaben]: +
- C/C=C/C=C/C(=O)[O-].[K+] [0.00625% potassium sorbate, potassium sorbate]: +

Now turn to the next molecule.
Short answer for CCOC(=O)c1ccc(O)cc1 [0.0125% Ethylparaben, Ethylparaben] : Candida growth, Strain 1 was +
